Sourced from patent US6380146B1

Test system: phenol oxidizing enzyme from Acremonium murorum
EXPERIMENT: Dye damage of the phenol oxidizing enzyme/enhancer system on colored swatch P10, consecutive washes in detergent formulation
MEASUREMENT_PARAMETERS: 3rd wash, enzyme 20 mg/l, enhancer 250 μM, 40° C., 1 hour
ENDPOINT_NAME: Color difference (ΔE) original P10 swatch vs after 3rd wash

compound="O=C(O)CCN1c2ccccc2Sc2ccccc21 [PTP, Phenothiazine-10-propionate]" value_reported=1.79
compound="CCn1c(=NN=c2sc3cc(S(=O)(=O)O)ccc3n2CC)sc2cc(S(=O)(=O)O)ccc21 [ABTS]" value_reported=3.29
compound="Cc1ccc(S(=O)(=O)Nc2cc(Br)c(O)c(Br)c2Br)cc1 [3Brphenol3MeBSA]" value_reported=1.10
compound="O=S(=O)(Nc1cc(Br)c(O)c(Br)c1Br)c1ccccc1 [Enhancer 3BrphenolBSA]" value_reported=1.20
